Can you tell me T/C for the items I'm about to list?
test system: L1210 leukemia ip in BDF1 mice, survival T/C; assay: NCI In Vivo Anticancer Drug Screen. Data for tumor model L1210 Leukemia (intraperitoneal) in B6D2F1 (BDF1) mice; conditions: endpoint: mean survival time; dose: 100.0 mg/kg/injection; schedule: Q01DX001 (ip); vehicle: saline with Tween-80; higher = longer survival
Toxic doses and inconclusive results are not listed.

{"molecule": "CCCC(=O)Nc1cc(C)ccc1OC", "T/C": "94 % of control"}
{"molecule": "CC(=O)N(Cc1cccc([N+](=O)[O-])c1)c1ccc(C(=O)O)cc1", "T/C": "98 % of control"}

Required: T/C, one value per molecule below.
1. CC1(C)N=C(N)N=C(N)N1c1ccc(CCC(=O)CCl)cc1
2. N#Cc1cn[nH]c1N
3. Nc1ccc(Cn2ccc(=O)[nH]c2=O)cc1
4. O=C1c2ccccc2C(=O)N1C1CCC(O)CC1 (stereo not given)
5. CCCCCCCCCCCCc1ccc(/C(C)=N/NC(=O)c2ccc[n+](C)c2)cc1

95 % of control
98 % of control
102 % of control
103 % of control
93 % of control
